Target: UniProtKB P29317
Sequence (P29317 whole entry, looked up): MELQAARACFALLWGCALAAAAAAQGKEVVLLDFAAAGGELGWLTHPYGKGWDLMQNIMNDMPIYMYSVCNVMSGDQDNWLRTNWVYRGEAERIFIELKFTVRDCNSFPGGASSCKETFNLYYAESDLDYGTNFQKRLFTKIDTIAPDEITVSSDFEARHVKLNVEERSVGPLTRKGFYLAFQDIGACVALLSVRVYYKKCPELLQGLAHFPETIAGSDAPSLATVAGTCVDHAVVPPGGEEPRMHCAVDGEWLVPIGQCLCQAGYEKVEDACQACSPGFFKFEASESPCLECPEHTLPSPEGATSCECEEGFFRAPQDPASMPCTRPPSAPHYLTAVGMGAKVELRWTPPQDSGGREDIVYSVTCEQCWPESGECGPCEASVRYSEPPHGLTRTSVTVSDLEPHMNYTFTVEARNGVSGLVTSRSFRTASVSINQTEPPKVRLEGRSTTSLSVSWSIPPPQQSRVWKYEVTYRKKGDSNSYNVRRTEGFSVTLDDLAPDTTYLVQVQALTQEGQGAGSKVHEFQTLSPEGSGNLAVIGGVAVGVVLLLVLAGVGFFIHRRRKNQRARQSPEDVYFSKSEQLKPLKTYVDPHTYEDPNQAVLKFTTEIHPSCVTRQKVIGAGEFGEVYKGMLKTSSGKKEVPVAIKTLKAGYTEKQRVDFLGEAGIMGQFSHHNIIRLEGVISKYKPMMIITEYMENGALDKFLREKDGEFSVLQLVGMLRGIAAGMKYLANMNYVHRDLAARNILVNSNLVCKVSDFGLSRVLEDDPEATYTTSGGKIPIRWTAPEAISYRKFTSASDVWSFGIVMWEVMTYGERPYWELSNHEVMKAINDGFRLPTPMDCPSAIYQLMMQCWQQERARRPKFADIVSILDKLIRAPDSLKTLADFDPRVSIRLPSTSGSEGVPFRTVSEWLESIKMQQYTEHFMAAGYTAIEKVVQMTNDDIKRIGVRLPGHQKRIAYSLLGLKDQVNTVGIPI
Experiment: radiometric filter-binding kinase assay, Kinase HotSpot
Settings: compound 0.5 µM; ATP 10 µM
# Lookup of reported residual activity keyed by entry

compound | residual activity (%)
O=C1Nc2ccccc2/C1=C1/Nc2ccccc2/C1=N\OCCC(O)CO (stereo unspecified) | 65.3
O=C1NC(=O)C(c2c[nH]c3ccccc23)=C1c1c[nH]c2ccccc12 | 91.6
CC(C)[C@H](CO)Nc1nc(Nc2cc(N)cc(Cl)c2)c2ncn(C(C)C)c2n1 | 67.5
COc1cc2ncc(-c3ccccc3)nc2cc1OC | 102
CN(C)C[C@H]1CCn2c(c(C3=C(c4cn(C)c5ccccc45)C(=O)NC3=O)c3ccccc32)C1 | 102
Cn1nc2c3c(cccc31)C(=O)c1ccccc1-2 | 104
O=C1Nc2ccccc2/C1=C1\Nc2ccccc2\C1=N/O | 84.3
Nc1nnc2[nH]c3ccccc3nc1-2 | 98.5
O=C1NC(=O)C(c2cn(CCCO)c3ncccc23)=C1c1cnccn1 | 105
Cn1sc(=O)n(Cc2ccccc2)c1=O | 96.5
COc1ccc(OC)c2c(=S)c3ccccc3[nH]c12 | 100

* * *

Target: PHKG2 (human) (UniProt P15735)
Sequence (P15735 whole entry, looked up): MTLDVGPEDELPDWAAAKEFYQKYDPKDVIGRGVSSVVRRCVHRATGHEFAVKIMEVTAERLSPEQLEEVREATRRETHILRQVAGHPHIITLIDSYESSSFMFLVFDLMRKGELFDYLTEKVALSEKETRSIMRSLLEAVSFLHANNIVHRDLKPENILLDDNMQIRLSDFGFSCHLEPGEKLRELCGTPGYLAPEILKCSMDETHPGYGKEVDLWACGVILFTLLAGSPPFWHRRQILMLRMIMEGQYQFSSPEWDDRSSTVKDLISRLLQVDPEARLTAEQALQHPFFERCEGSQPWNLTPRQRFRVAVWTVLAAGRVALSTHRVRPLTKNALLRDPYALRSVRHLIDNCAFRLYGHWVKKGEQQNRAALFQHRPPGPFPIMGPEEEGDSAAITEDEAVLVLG
Test: radiometric filter-binding kinase assay, Kinase HotSpot
Settings: compound 0.5 µM; ATP 10 µM
// reported residual activity for each item listed
value-kind: residual activity (%)

smiles-str | target | value-reported
CCN(CC)CCCCN1c2ccccc2Oc2ccc(Cl)cc21 | PHKG2 (human) (UniProt P15735) | 110
COc1ccc(CNC(=O)Nc2ncc([N+](=O)[O-])s2)cc1 | PHKG2 (human) (UniProt P15735) | 105
Oc1ccc(Nc2nc(-c3ccc(Cl)cc3)cs2)cc1 | PHKG2 (human) (UniProt P15735) | 99.9
CC(C)c1nn(-c2c(Cl)cccc2Cl)c2nc(Cc3ccc(OCCO)cc3)nc(O)c12 | PHKG2 (human) (UniProt P15735) | 102
O=C1NC(=O)C(c2cn(CCCO)c3ncccc23)=C1c1cnccn1 | PHKG2 (human) (UniProt P15735) | 102
CC(C)[C@H](CO)Nc1nc(Nc2cc(N)cc(Cl)c2)c2ncn(C(C)C)c2n1 | PHKG2 (human) (UniProt P15735) | 105
COc1ccc(OC)c2c(=S)c3ccccc3[nH]c12 | PHKG2 (human) (UniProt P15735) | 94.6
O=C1NC(=O)C(c2c[nH]c3ccccc23)=C1c1c[nH]c2ccccc12 | PHKG2 (human) (UniProt P15735) | 107
O=C(Nc1cccc(Nc2cc(Nc3cccc(C(F)(F)F)c3)ncn2)c1)C1CC1 | PHKG2 (human) (UniProt P15735) | 101
CC(=O)O/N=C1\C(=C2\C(=O)Nc3cc(Br)ccc32)Nc2ccccc21 | PHKG2 (human) (UniProt P15735) | 96.6
COc1cc2ncnc(N3CCN(C(=O)Nc4ccc(Oc5ccccc5)cc4)CC3)c2cc1OC | PHKG2 (human) (UniProt P15735) | 128
O=C(O)/C=C/c1cc(Br)c(Br)c(Br)c1Br | PHKG2 (human) (UniProt P15735) | 98.9
O=C1Nc2ccccc2/C1=C1\Nc2ccccc2\C1=N/O | PHKG2 (human) (UniProt P15735) | 60.7
COc1cc2ncc(-c3ccccc3)nc2cc1OC | PHKG2 (human) (UniProt P15735) | 97.1
O=C(CCCc1ccc(-c2ccccc2F)cc1)Nc1ccc(O)cc1 | PHKG2 (human) (UniProt P15735) | 102
Nc1nccc(-c2c(-c3ccc(F)cc3)ncn2C2CCNCC2)n1 | PHKG2 (human) (UniProt P15735) | 104
Nc1nnc2[nH]c3ccccc3nc1-2 | PHKG2 (human) (UniProt P15735) | 96.6
Cn1nc2c3c(cccc31)C(=O)c1ccccc1-2 | PHKG2 (human) (UniProt P15735) | 95.4
CN([C@@H](Cc1ccc(OS(=O)(=O)c2cccc3cnccc23)cc1)C(=O)N1CCN(c2ccccc2)CC1)S(=O)(=O)c1cccc2cnccc12 | PHKG2 (human) (UniProt P15735) | 101
CN(C)C[C@H]1CCn2c(c(C3=C(c4cn(C)c5ccccc45)C(=O)NC3=O)c3ccccc32)C1 | PHKG2 (human) (UniProt P15735) | 104
CCn1cnc2c(Nc3cccc(Cl)c3)nc(N[C@@H]3CCCC[C@@H]3N)nc21 | PHKG2 (human) (UniProt P15735) | 85.6
Cc1nc2cc3nc(-c4cccs4)cnc3cc2n1C | PHKG2 (human) (UniProt P15735) | 102

meta.source: the kinase profiling compilation of Christmann-Franck et al. (2016)
